This collection of values is drawn from BigSolDB 2.1.

Experimental parameters: in isopropyl acetate, 323.15 K
Quantity kind: solubility (mole fraction)
Answer with a bare number; do not write a unit.

-- ask Which solubility (mole fraction) value belongs to `CCCCCc1ccc2c(c1)C(=O)c1ccccc1C2=O` ?
-- reply 0.163

###

Experimental parameters: in sec-butanol, 303.15 K
Quantity kind: solubility (mole fraction)
Just the number.

-- ask Returns the measured solubility (mole fraction) for the input compound. Input: `CCCCCc1ccc2c(c1)C(=O)c1ccccc1C2=O`
-- reply 0.00842
